tested system: hTRPA1 (Homo sapiens)
Sequence (O75762 whole entry): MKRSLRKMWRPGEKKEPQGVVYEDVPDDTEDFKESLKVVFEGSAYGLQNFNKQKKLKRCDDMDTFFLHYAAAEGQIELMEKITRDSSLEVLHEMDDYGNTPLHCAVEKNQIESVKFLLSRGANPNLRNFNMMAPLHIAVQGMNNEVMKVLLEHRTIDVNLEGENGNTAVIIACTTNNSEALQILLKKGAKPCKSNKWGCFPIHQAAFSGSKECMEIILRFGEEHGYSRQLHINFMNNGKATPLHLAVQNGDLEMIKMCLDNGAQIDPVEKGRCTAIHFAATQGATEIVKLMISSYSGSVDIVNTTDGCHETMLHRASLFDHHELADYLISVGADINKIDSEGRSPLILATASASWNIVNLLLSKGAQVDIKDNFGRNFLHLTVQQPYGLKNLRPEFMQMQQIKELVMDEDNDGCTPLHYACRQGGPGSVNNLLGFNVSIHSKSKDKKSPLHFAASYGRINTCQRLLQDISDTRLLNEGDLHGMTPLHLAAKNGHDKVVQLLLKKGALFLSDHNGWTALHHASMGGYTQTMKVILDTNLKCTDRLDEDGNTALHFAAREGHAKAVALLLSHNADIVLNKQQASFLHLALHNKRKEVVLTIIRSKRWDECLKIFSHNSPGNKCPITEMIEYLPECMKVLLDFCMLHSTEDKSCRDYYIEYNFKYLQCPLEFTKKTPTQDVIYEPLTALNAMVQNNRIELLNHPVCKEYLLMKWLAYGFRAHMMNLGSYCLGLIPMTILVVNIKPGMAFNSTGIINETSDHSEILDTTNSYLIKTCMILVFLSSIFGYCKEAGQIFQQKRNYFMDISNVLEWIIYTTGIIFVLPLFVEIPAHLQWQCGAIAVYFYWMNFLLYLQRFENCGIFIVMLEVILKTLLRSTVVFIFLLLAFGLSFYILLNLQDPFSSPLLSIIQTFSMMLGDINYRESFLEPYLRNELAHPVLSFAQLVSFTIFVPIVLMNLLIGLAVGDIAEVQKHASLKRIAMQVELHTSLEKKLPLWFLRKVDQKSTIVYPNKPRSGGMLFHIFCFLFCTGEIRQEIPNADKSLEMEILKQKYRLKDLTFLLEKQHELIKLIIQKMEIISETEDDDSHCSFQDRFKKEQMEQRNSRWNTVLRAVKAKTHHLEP
experiment summary: Ca2+ fluorometry TRPA1 antagonism in hTRPA1/TREx-HEK293 cells (FDSS)
condition: 11H-dibenzo[b,e]azepine-10-carboxylic acid methyl ester as TRPA1 agonist (25 nM), hTRPA1-HEK cells, Fluo4-AM
pIC50: −log10 of the molar value.
parameter: pIC50

Some compounds with recorded pIC50:
CCN(CC)CCOc1cccc(C2NC(=S)NC3=C2C(=O)c2ccccc23)c1 (stereo not drawn)    5.92
COCCCOc1cccc([C@@H]2NC(=S)NC3=C2C(=O)c2ccccc23)c1    < 5.00
COc1cccc([C@H]2NC(=S)NC3=C2C(=O)c2ccccc23)c1    ~7.12
O=C1C2=C(NC(=S)NC2c2cccc(F)c2)c2ccccc21 (stereo not drawn)    ~5.97
COc1ccc(F)c(C2NC(=S)NC3=C2C(=O)c2ccccc23)c1 (stereo not drawn)    ~6.44
COc1cccc([C@@H]2NC(=S)NC3=C2C(=O)c2ccccc23)c1    < 5.00
COc1cccc(C2NC(=O)N(Cc3ccccc3)C3=C2C(=O)c2ccccc23)c1 (stereo not drawn)    ~5.22
CC(=O)OCCCCOc1cccc(C2NC(=S)NC3=C2C(=O)c2ccccc23)c1 (stereo not drawn)    6.25

So what's the measured pIC50 for this one? COc1cc(OC)cc(C2NC(=S)NC3=C2C(=O)c2ccccc23)c1 (stereo not drawn) ~5.56

So what's the measured pIC50 for this one? COc1ccc(OC)c(C2NC(=S)NC3=C2C(=O)c2ccccc23)c1 (stereo not drawn) < 5.00

Given the compound CCCCOc1cccc(C2NC(=S)NC3=C2C(=O)c2ccccc23)c1 (stereo not drawn) , what is its reported pIC50? 6.50

Please report the recorded pIC50 for COc1cccc(C2NC(=S)NC3=C2C(=O)c2ccccc23)c1OC (stereo not drawn) . < 5.00
